Origin of the recorded values: paper PMC4358806

tested on: HEL and CrFK cell cultures; assay: Cytotoxicity; type: cell-based
Measured quantity: MCC (cytotoxicity)

The examples below pair each entry with its known result.
Enquiry: Which MCC (cytotoxicity) reading was recorded for the molecule "COC(=O)[C@H](C)NP(=O)(N[C@@H](C)C(=O)OC)OC[C@H]1O[C@@H](n2cnc(C(N)=O)c2N)[C@H](O)[C@@H]1O" ?
Return: >100 µM

Enquiry: Which MCC (cytotoxicity) reading was recorded for the molecule "C[C@H](NP(=O)(N[C@@H](C)C(=O)OCC(C)(C)C)OCCOCn1cnc2c(=O)[nH]c(N)nc21)C(=O)OCC(C)(C)C" ?
Return: >100 µM

From here, focus on the item given below.
Enquiry: Which MCC (cytotoxicity) reading was recorded for the molecule "C[C@H](NP(=O)(N[C@@H](C)C(=O)OCc1ccccc1)OCCOCn1cnc2c(=O)[nH]c(N)nc21)C(=O)OCc1ccccc1" ?
Return: >100 µM

====

tested on: HEL and CrFK cell cultures; assay: Cytotoxicity; format: cell-based
// reported MCC (cytotoxicity) per item

Enquiry: Which MCC (cytotoxicity) reading was recorded for the compound Nc1nc2c(ncn2COCCO)c(=O)[nH]1 [Compound 10, acyclovir, reference compound] ?
Return: >100 µM

Enquiry: Which MCC (cytotoxicity) reading was recorded for the compound NC(=O)c1ncn([C@@H]2O[C@H](CO)[C@@H](O)[C@H]2O)c1N [Compound 13, acadesine, reference compound] ?
Return: >100 µM

From here, focus on the item given below.
Enquiry: Which MCC (cytotoxicity) reading was recorded for the compound "C[C@H](NP(=O)(N[C@@H](C)C(=O)OCc1ccccc1)OC[C@H]1O[C@@H](n2cnc(C(N)=O)c2N)[C@H](O)[C@@H]1O)C(=O)OCc1ccccc1" ?
Return: >100 µM

====

assay: Cytotoxicity in HCV replicon assay, Huh 7 cells; format: cell-based; settings: human, Huh 7 cells (HCV replicon type 1b)
Measured quantity: CC50

Enquiry: Which CC50 reading was recorded for the molecule C[C@H](NP(=O)(N[C@@H](C)C(=O)OCc1ccccc1)OC[C@H]1O[C@@H](n2cnc(C(N)=O)n2)[C@H](O)[C@@H]1O)C(=O)OCc1ccccc1 [Compound 30] ?
Return: > 100 µM
